Assay: in vitro
Assay type: cell-based
Conditions: human, HepG2 or HepG2.117 cells, ATPlite, 3-days incubation (not marked with *), mean value
CC50 at 3 days: recorded values

compound="CNC(=O)c1ccc(-n2c(NC(C)C)nc3c(c2=O)C[C@@H](C)N(C(=O)c2ccc(OC(F)F)c(Cl)c2)C3)cc1 [Compound C475]" reported_value="> 50 µM"
compound="CNC(=O)c1ccc(-n2c(N[C@@H](C)C(C)(C)C)nc3c(c2=O)C[C@@H](C)N(C(=O)c2ccc(Cl)c(Cl)c2)C3)cc1 (single isomer, unassigned) [Compound C459b]" reported_value="32.5 µM"
compound="CNC(=O)c1ccc(-n2c(NC[C@H](C)c3cccc(OC)c3)nc3c(c2=O)C[C@@H](C)N(C(=O)c2ccc(Cl)c(Cl)c2)C3)cc1 (single isomer, unassigned) [Compound C436a]" reported_value="22.3 µM"
compound="CNC(=O)c1ccc(-n2c(N(C)Cc3cn(C)nn3)nc3c(c2=O)C[C@@H](C)N(C(=O)c2ccc(Cl)c(Cl)c2)C3)cc1 [Compound C479]" reported_value="> 50 µM"
compound="CNC(=O)c1n[nH]c(-n2c(NC(C)C)nc3c(c2=O)C[C@@H](C)N(C(=O)c2ccc(Cl)c(Cl)c2)C3)c1C [Compound C693]" reported_value="> 50 µM"
compound="CNC(=O)c1ccc(-n2c(NC(C)Cc3c[nH]c4ccc(F)cc34)nc3c(c2=O)C[C@@H](C)N(C(=O)c2ccc(Cl)c(Cl)c2)C3)cc1 (some centres unmarked) [Compound C548]" reported_value="10.3 µM"
compound="CNc1noc2cc(-n3c(N[C@@H](C)c4ccc(OC(F)(F)F)cc4)nc4c(c3=O)C[C@@H](C)N(C(=O)c3ccc(Cl)c(Cl)c3)C4)ccc12 [Compound C616]" reported_value="> 50 µM"
compound="CNC(=O)c1ccc(-n2c(N[C@H](C)C3CCC3)nc3c(c2=O)C[C@@H](C)N(C(=O)c2ccc(Cl)c(Cl)c2)C3)cc1 (single isomer, unassigned) [Compound C406a]" reported_value="31.3 µM"
compound="CNC(=O)c1ccc(-n2c(NC(C)C)nc3c(c2=O)C[C@@H](C)N(C(=O)c2cc4ccc(OC)cc4s2)C3)cc1 [Compound C524]" reported_value="> 50 µM"
compound="CC(C)Nc1nc2c(c(=O)n1-c1cccc(-c3cn[nH]n3)c1)C[C@@H](C)N(C(=O)c1ccc(Cl)c(Cl)c1)C2 [Compound C448]" reported_value="27.9 µM"

Turning to the following compound.
Suppose we examine the compound CNC(=O)c1ccc(-n2c(N[C@H](C)c3ccccc3OC)nc3c(c2=O)C[C@@H](C)N(C(=O)c2ccc(Cl)c(Cl)c2)C3)cc1 (single isomer, unassigned) [Compound C402a] ; what CC50 at 3 days value has been reported? 13.8 µM

###

System: HepG2 cells
Assay: in vitro
Format: cell-based
Details: 3-days incubation (unmarked values); HepG2 or HepG2.117 cells, ATPlite viability, mean value; read-out: CC50 (μM, mean value)
Property measured: CC50 (µM)
Express the result in µM but write the number alone.

Suppose we examine the compound CNC(=O)c1ccc(-n2c(N3CC4CC3C4)nc3c(c2=O)C[C@@H](C)N(C(=O)c2ccc(Cl)c(C(F)(F)F)c2)C3)c(Cl)c1 (single isomer, unassigned) [Compound C701b] ; what CC50 value has been reported? 25.4
